Method Notes: Selectivity index, ratio of CC50 for human Huh-7 cells to IC50 for Antiviral activity against Ebola virus trVLP infected in human Huh-7 cells
Type: toxicity, cell-based
Applied Conditions: read-out: Ratio CC50/IC50
As shown below, each of these molecules has a reported selectivity ratio value.
# print the numeric value only

• CCC(CC)COC(=O)[C@@H](C)N[P@](=O)(OC[C@H]1O[C@@](C#N)(c2ccc3c(N)ncnn23)[C@H](OC(=O)CCCCCCCCCCCN=[N+]=[N-])[C@@H]1O)Oc1ccccc1 = 54

selectivity ratio for "CCSCCCCCCCCCCCC(=O)O[C@H]1[C@@H](O)[C@](C#N)(c2ccc3c(N)ncnn23)O[C@@H]1CO[P@@](=O)(N[C@H](C)C(=O)OCC(CC)CC)Oc1ccccc1" ? 82.1
